Where these numbers come from: paper PMC4829596

Tested on: HepG2 cells
Assay: XTT assay, metabolic active cells
Format: cell-based, human
Details: compound 2mg/ml
// values below are reported % of metabolic active HepG2 cells
Form entry: value (%) — number only.

Reference set, count: 3
O=C1NC(Cc2ccccc2)C(=O)N2CCCC12 (stereo not drawn)	116.63
O=C(O)C(O)Cc1ccccc1 (stereo not drawn)	66.01
O=C(O)c1c[nH]c2ccccc12	122.3

O=Cc1ccc(O)cc1 [4FP, p-hydroxybenzaldehyde] has a reported % of metabolic active HepG2 cells of 57.33

Reported % of metabolic active HepG2 cells of O=C(O)Cc1ccccc1 : 122.9

The reported % of metabolic active HepG2 cells of the molecule CSCCC1NC(=O)C2CCCN2C1=O (stereo not drawn) was 107.47

---

Test system: E. coli
Experiment: Determination of MIC
Format: cell-based, Escherichia coli
Conditions: Escherichia coli; E. coli; read-out: MIC
measured attribute: MIC (µg/mL)
Numbers only; they are read as µg/mL.

The value of MIC recorded for O=C(O)Cc1c[nH]c2ccccc12 when tested on E. coli reads 1750

Log: E. coli, molecule O=Cc1ccc(O)cc1 [4FP, p-hydroxybenzaldehyde] , MIC = 2500

Value (MIC, E. coli) for record O=C(O)c1c[nH]c2ccccc12 = 1000

O=C(O)C(O)Cc1ccccc1 (stereo not shown) tested on E. coli gave MIC: 2500

---

Test system: human hepatocytic (HepG2) cells
Test: Cytotoxicity assay, lactate dehydrogenase release
Assay type: cell-based
Details: compound 2mg/ml, 24 h, LDH
Protocol: Cytotoxicity of the fungal extract and the identified compounds was determined measuring lactate dehydrogenase release using human intestinal epithelial (Caco2) and human hepatocytic (HepG2) cells. […] Cells were seeded into 96-well plates (5 × 10^4 cells per well) and incubated until a confluent cell layer had developed. […] LDH release was measured according to the manufacturer’s protocol (Sigma–Aldrich, USA).
So basically: % of living HepG2 cells at 5% or higher? That is 1. Lower than 5%? That is 0.

Would you please look over these solved cases?
CSCCC1NC(=O)C2CCCN2C1=O [cPM, cyclo-(L-proline-L-methionine)]	0
O=C(O)Cc1ccccc1 [PAA, phenylacetic acid]	1

Hi, just wondering whether O=C(O)C(O)Cc1ccccc1 (stereo not drawn) [PLA, phenyllactic acid] shows % of living HepG2 cells of 5% or higher.
1

Is % of living HepG2 cells at least 5%? Consider O=Cc1ccc(O)cc1 [4FP, p-hydroxybenzaldehyde]
1

---

Tested on: Caco2 cells
Assay: XTT assay, metabolic active cells
Assay type: cell-based, human
Details: compound 2mg/ml, XTT
Readings of % of metabolic active Caco2 cells for the listed compounds
Give just the number in %; leave the unit off.

Reference set, count: 5
O=C(O)c1c[nH]c2ccccc12	97.59
O=Cc1ccc(O)cc1 [4FP, p-hydroxybenzaldehyde]	32.06
O=C(O)Cc1ccccc1	113.54
CSCCC1NC(=O)C2CCCN2C1=O (stereo not drawn)	99.18
O=C(O)C(O)Cc1ccccc1 (stereo not drawn)	41.48

Please look at the following compound next.
Field % of metabolic active Caco2 cells (entry O=C1NC(Cc2ccccc2)C(=O)N2CCCC12 (stereo not drawn) ) reads 106.66

---

Catalogue of MIC readings, one per entry.
Test system: P. aeruginosa
Experiment: Determination of MIC
Type: cell-based, Pseudomonas aeruginosa
Conditions: Pseudomonas aeruginosa
Method: Minimal inhibitory concentrations (MICs) of purified compounds and commercially available standards were assessed against S. aureus, C. albicans, P. aeruginosa, K. pneumoniae, E. coli, ESBL K. pneumoniae, ESBL E. coli and the two MRSA strains (B337919 and B335466). Stock solutions of 5 × 10^6 μg/l of p-hydroxybenzaldehyde, and phenyllactic acid were prepared using water. […]

As a guide, the following entries are already answered.
O=Cc1ccc(O)cc1 [4FP, p-hydroxybenzaldehyde]	2500 µg/mL
O=C(O)c1c[nH]c2ccccc12	2000 µg/mL
O=C(O)Cc1c[nH]c2ccccc12	2000 µg/mL

Recorded MIC (compound O=C(O)C(O)Cc1ccccc1 (stereo not shown) ): 5000 µg/mL
